Assay: yeast display, Sf9 membrane polyspecificity reagent, FACS + sequencing; frameworks hold sequencing errors
measured-property: polyreactivity (PSR sort gate)

seq	polyreactivity (PSR sort gate)
EEELVESGGGLVQAGGSSLRLSCAASGFIFVSNAMGWYRQAPGKERELVASIRWSDGSTFYADSVKGRFTISRDNAKNTVYLQMNSLKPEDTAVYYCNAVYEHRRVGWVTIDYGYWGQGTQVTVSS	low polyreactivity
QVQLVESGGGLVQAGGSLRLSCAASGITFYLYAMGWYRQAPGKERELVAAISSSGGSTYYADSVKGRFTISRDNAKNTVYLQMNSLKPEDTAVYYCNASRRTVPYRYDYWGQGTQVTVSS	high polyreactivity
QVQLVESGGGLVQAGGSLRLSCAASGRTFFIYAMGWYRPAPGKERELVAAITYGGGRTFYADSVKGRFTISRDNAKYTVYLQMNSLKPEDTAVYYCAATVRGKRSTYDYWGQGTQVTVSS	high polyreactivity
QVQLVESGGGLVQAGGSLRLSCAASGRTFWSNAMGWYRQAPGKERELVADITLSGGRTYYADSVKGRFTISRDNAKNTVYLHMNILKPEDTAVYYCAASATPSGVGMDYWGQGTQVTVSS	low polyreactivity

Q) Which polyreactivity (PSR sort gate) is reported for this sequence? "QVQLVESGGGLVQAGGSLRLSCAASGSTFYNYAMGWYRQAPGKERELVAAIRNGGGTNYADSVKGRFTISRDNAKITVYLQMNSLKPEDTAVYYCNKAYGVSGPGVDYWGQGTQVTVSS"
A) low polyreactivity

Q) Which polyreactivity (PSR sort gate) is reported for this sequence? "QVQLVESGGGLVQAGGSLRLSCAASGSTFKPNAMGWSRQAPGKERELVAAINGSGGDTYYADSVKGRFTISRDYANNTFYLQMNSLKPEDTAVYYCAAQWGYYNYWYGYWGQGTQVTVSS"
A) low polyreactivity

Q) Which polyreactivity (PSR sort gate) is reported for this sequence? "QVQLVESGGGLVQAGGSLRLSCAASGRIYIDYAMGWYRQAPGKERELVATISESGGSTYYADSVKGRITISRDNAKNTVYLQMNSLKPEDTAVYYCAVDDRSGTVYFYTKFDYWGQGTQVTVSS"
A) low polyreactivity

Q) Which polyreactivity (PSR sort gate) is reported for this sequence? "QVQLVESGRGLVQAGGSLRLSCAASGITFWYYAMGWYRQAPGKERELVASINRSGGSTYADSVKGRFTISRDNAKITVYLQMNSLKPEDTAVYYCAARLYSSVVRYRYGYWGQGTQVTVSS"
A) high polyreactivity

Q) Which polyreactivity (PSR sort gate) is reported for this sequence? "QVQLVESGGGLVQAGGSLRLSCAASGSTFFTNAMGWYRQAPGKERELVAAITINDGSTFYADSVKGRFTITRDNAKNTVYLQMNSLKPEDTAVYYCNADGVDLYDYWGQGTQVTVSS"
A) low polyreactivity

Q) Which polyreactivity (PSR sort gate) is reported for this sequence? "QVQLVESGGGLVQAGGSLRLSCAASGIIFYHNAMGWYRQAPGKERELVASITEIGGSTYYADSVKGRFTISRDNAKNTVYILMNSLKPEDTAVYYCAAGTLTSFSRYDYWGQGTQVTVSS"
A) low polyreactivity

Q) Which polyreactivity (PSR sort gate) is reported for this sequence? "QVQLVESGGGLVQAGGSLRLSCAASGRTFRRNAMGWYRQAPGKERELVAAIRWSSGSTYYADSVKRRFTISRDNAKNTVYLQMNSLKPEDTAVYYCAKRQWGGRESFDYWAQGTQVTVSS"
A) low polyreactivity

* * *

Experiment: yeast display, Sf9 membrane polyspecificity reagent, FACS + sequencing; frameworks hold sequencing errors
measured-property: polyreactivity (PSR sort gate)

seq	polyreactivity (PSR sort gate)
QVQLVESGGGLVQAGGSLRLSCAASGSIFGTNGMGWYRQAPGKERELVAAITRRGGSTYADSVKGRFTISRDNAKNTVYLQMNSLKPEDTAVYYCAAQGYLRLRTHFNYWGQGTQVTVSS	low polyreactivity
QVQLVESGGGLVQAGGSLRLSCAASGRTFGRYAKGWYRQAPGKERELVATITSGGSTNYADSVKGRFTISRDNAKNTVYLQMNSLKPEDTAVYYCAAEFSPSRWAYSEGALRYNYWGQGTQVTVSS	low polyreactivity
QVQLVESGGGLVQAGGSLRLSCAASGITSGTYAMGRYRQAPGKERELVAGISRSGTRTYYADSVKGRFTISRDNAKNTVYLQMNSLKPEDTEVYYCNTYVGRRPGYGYWGQGTQVTVSS	high polyreactivity
QVQLVESGGGLVQAGGSLRLSCAASGSTFQINAMGWYRQAPGKEREFVAAITVSSGSTYYADSVKGRFTISRDNAKNTVYLQMNSLKPEDTAVYYCAADYWGQGTQVTVSS	low polyreactivity

Q) Which polyreactivity (PSR sort gate) is reported for this sequence? "QVQLVESGGGLVQAGGSLRLSCAASGFIFVINAMGWYRQAPGKERELVAGISSGGRTNYADSVKGRFTISRDNAKNTVYLEMKSLKPEDTAVYYCAAAPTYKWRRKNYDYWGQGTQVTVSS"
A) high polyreactivity

Q) Which polyreactivity (PSR sort gate) is reported for this sequence? "QVQLVESCGGLVQAGGSLRLSCDASGSIFIKKTMGWYRQAPGKEREMVAAISWSGGSTYYADSVKGRFTISRDNAKNTVYLQMNSLKPEDTAVYYCNAYYFWRTWFDTYDYWGQGTQVTVSS"
A) high polyreactivity

* * *

Experiment: yeast display, Sf9 membrane polyspecificity reagent, FACS + sequencing; frameworks hold sequencing errors
measured-property: polyreactivity (PSR sort gate)

Examples with their reported polyreactivity (PSR sort gate) follow.
seq	value-observed
QVQLVESGGGLVQAGGSLRLSCAASGSIFYPNAMRWYRQAPGKQRELVAVITGGATTYYADSVKGRFTISRDYAKNTVYLQRNSLNPEDTAVDYCAADSAENVYRGYDWGQGTQVTVSS	low polyreactivity
QVQLVESGGRLVKARGSLRISFADSVRTFIRNAMGWYRQAPGKERELVAAITSSGGSTYYADSVKGRFTISRDNAKITVYLQMNILKPEDTAVYYCAAVNSKRHRRYNYWGQGTQVTVSS	high polyreactivity
QVQLVESGGGLVQAGGSLRLSCAASGSTFAGNAMGWYIQAPGKERELVAAISSSGAGTYYADSVKGRFTISRDNAKNTVYLLINSLKPADTAVYYCNVGSRALRRRVRSVSFDYWGQGTQVSVSS	low polyreactivity
QDQHVESGGGLVQAGGSLRLSCDASGFIFNQNARGWYRQAPGKERELVAAISQRGGRTYYADSVKGRFTISRDNAKNTVYLQMNSLKPEDTAVYYCAAYGPFRFDVDTYDYWGQGTQVTVSS	low polyreactivity
QVQLVESGGGLVQAGGSLRLSCAASGIFSRYAMGWYRQAPGKERELVAAISSGGSTYYADSVKGRFTISRDNAKNTVYLQMNSLKPEDTAVYYCAVKQRDKFAGGRNDYWGQGTQVTVSS	high polyreactivity

# evaluate next
Q) Which polyreactivity (PSR sort gate) is reported for this sequence? "QVQLVESGGGLVQAGGSLRLSCAASGRIFRTYAMGWYRQAPGKERELVAAITWSGGSTYYADSVKGRFTISRDNAKNTVYLQMNSLKPEDTAVYYCNALTPGYRIYDYWGQGTQVTVSS"
A) high polyreactivity

* * *

Experiment: yeast display, Sf9 membrane polyspecificity reagent, FACS + sequencing; frameworks hold sequencing errors
measured-property: polyreactivity (PSR sort gate)

Examples with their reported polyreactivity (PSR sort gate) follow.
seq	polyreactivity (PSR sort gate)
QVQLVESGGGLVQAGGSLRLSCAASGFIFVLNAMGWYRQAPGKERELVAAIRWSGGSTYYADSVKGRFTISRDNAKNTVYLQMNSLKPEDTAVYYCAARLWLKVQYLRFFGYDYWGQGTQVTVSS	low polyreactivity
QVQLVESGGGLVQAGGSLLLSGAPSGRTFPYYAMGWYRQAPGKERELVARISSDGSTTYADSVKGRITISRDHAKNTVYLQMNSLKPEDTAVYYSAADVTFAGLKYIFDYWGPGTQVTVSS	low polyreactivity
QVQLVESGGGLVQAGGSLRISCAASGFIFRLYAMGWYRQAPGKERELVAAIRWSGGSTTYADSVKGRFTISRDNAKNTVYLQMNSLNPEDTAVYYCAATAGRRSVTYGYWGQGTQVTVSS	high polyreactivity
QVQLVESGGGLVQAGGSLRLSCAASGRTSGNYAMGWYRPAPGKERELVAAMRYSGSSTFYADSVKGRFTISRDNAKNTVYLQMNSLKPEDTAVYYCARDIRRKGFRYDYWGQGTQVTVSS	high polyreactivity

# evaluate next
Q) Which polyreactivity (PSR sort gate) is reported for this sequence? "QVQLVESGGGLVQAGGSLRLSCAASGSIFRVYAMGWYRQAPGKERELVAGISSRGGTSTYYADSVKGRFTISRDNAKNSVYLQMNSLNPEETAVYYCAVQVRYPGYDYWGQGTQVTVSS"
A) low polyreactivity

* * *

Assay: yeast display, Sf9 membrane polyspecificity reagent, FACS + sequencing; frameworks hold sequencing errors
measured-property: polyreactivity (PSR sort gate)

seq	value-observed
QVQLVESGGGLVQAGGSLRLSCAASGSILSGYAMGWYRQAPGKETELVAAITSGGDTNYADSVKGRFTISRDNAKNTVYLQMNSLKPEDTAVYYCNRRGDFRIAYYDPMDYWGQGTQVTVSS	low polyreactivity
QVQLVESGGGLVQAGGSLRLSCAASGSIFSGNAMGWYRQAAGKERELVAVITYRSSRTYYADSVKGRFTISRDNAKNTVYLQMNSLKPEDTAVYYCAAYSNRVVKGYGYWGQGTQVTVSS	high polyreactivity
QVQLVESGGGLVQAVGSLRLSCDATGSTLHKNTMGWYRQAPAKERELVAAISRRGGSTYYADSVKGRFTISRDNAKITVYLQMNSLKPEDTAVYYCATEGYDGEFDYWGQGTQVTVSS	high polyreactivity
QVQLVESGGGLVQAGGSLRLSCAASGRIFGYYAMGWYRQAPGKERELVATIRGGGSTNYADSVKGRCTISRDNAKNTVFLQMNSLKPEDTAVYYCAKPCAKWRGFDYWGQGTQVTVSS	low polyreactivity
QGQLVESGGGLVQAGGSLRLSCAASGFSFQYYAMGWSRHAHGKERELVAAINRGGGTHYADSVKGRFTISRDNAKNTVYFQMHSLKPEDTAVYYCNKVYYWPGSRPSRYEYWGQGTQVTVSS	low polyreactivity

Q) Which polyreactivity (PSR sort gate) is reported for this sequence? "QVQLVESGGGLVQAGGSLRESCAASGSISAEYVMGWYRKAPGKERELVAAISVSAGTTYYADSVKGRFTISRDNAKTTVYLHMNSLKPEDTAVYYCAATDSYYWLYYYGYSPCNDYWGQGTQVTVSS"
A) low polyreactivity
